Target or system Cytochrome P450 3A4 (Homo sapiens, UniProt P08684); metric IC50; compiled from varied reports.
Rule: IC50 below 3 µM gives yes (1), anything at or above gives no (0).

compound | cat
Cc1nccn1-c1ccc(-c2cn(CC(=O)Nc3cccc(Cl)c3Cl)nn2)cn1 | no (0)
COC(=O)C1CCN(C(=O)c2ccc(CNC(=O)c3ccc4nc(N)sc4c3)cc2)CC1 | no (0)
NC(=O)[C@@H]1CCCN1C(=O)c1ccc(NC(=O)Nc2ccc(-c3nc(N4CCOCC4)nc(N4CCOCC4)n3)cc2)cc1 | no (0)
CCN[C@@H]1CCC=C(c2ccc(F)cc2)[C@H]1CNc1cc(F)c(S(=O)(=O)Nc2nccs2)cc1Cl.Cl | no (0)
CCOCCn1c(N2CC[C@H](N(C)C)C2)nc2ccccc21 | no (0)
O=S(=O)(C1CC1)N1CCC(Oc2ccc3c(c2)CCC2(CCN(C4CCC4)CC2)O3)CC1 | no (0)
COc1cc(F)ccc1-c1ncnc(Nc2cccc(CS(C)(=N)=O)c2)n1 (stereo unspecified) | no (0)
CC(CCN1CCOCC1)CC(=O)Nc1ccc(C(=O)Nc2nccs2)cc1 (stereo unspecified) | no (0)
COc1cc(C2=NC(c3ccc(Cl)cc3F)C(C(=O)Nc3cc4cn[nH]c4cc3F)=C(C)N2)ccn1 (stereo unspecified) | no (0)
CN1CCN(Cc2ccc(/C=C/c3n[nH]c4cc([C@@H]5C[C@@]56C(=O)Nc5ccccc56)ccc34)cc2)CC1 (relative stereo) | no (0)
COc1ccc(-c2ccc(Cn3c(CC(C)(C)C(=O)O)c(SC(C)(C)C)c4cc(OCc5ccccn5)ccc43)cc2)cn1 | no (0)
C[C@H]([C@@H](c1ccc2cc(OCC3(C(=O)O)CCCC3)ccc2c1)n1ccnc1)N(C)C | no (0)
O=C(Nc1ccccc1)c1cn2cc(-c3ccccn3)ccc2n1 | no (0)
Cc1cnc(-c2cc(F)ccc2F)cc1Nc1ccnc2cn[nH]c12 | yes (1)
COC(=O)C1=C(Cn2ccnc2)NC(C)=C(C#N)C1c1ccc(F)cc1Cl (stereo unspecified) | yes (1)
O=C(Cc1ccc(-c2ccccc2)cc1)NCC1COc2ccccc2O1 (stereo unspecified) | no (0)
N[C@@H](CC(=O)N1CCN(C(=O)c2ccc(C(=O)O)cc2)CC1)Cc1cc(F)c(F)cc1F | yes (1)
CN1C(C)(C)CC(Nc2cc(F)c(S(=O)(=O)Nc3nccs3)cc2Cl)CC1(C)C | no (0)
Cc1cc2c(cc1F)c(C#N)c(-c1ccc(S(=O)(=O)N[C@@H](C)C(F)(F)F)cn1)n2-c1ncccn1 | no (0)
N#Cc1cccnc1N[C@H]1CCN(C(=O)O[C@H]2C3CC4CC2C[C@](C(N)=O)(C4)C3)C1 | no (0)
COC[C@H](O)Cn1c(=O)cnn(-c2ccc(C)c(NC(=O)C3=CN(C)C(=O)C[C@H]3c3ccc(F)cc3)c2)c1=O | no (0)
CCN(C)c1nc2ccc(C(=O)N(CCN3CCCC3)C[C@@H](O)[C@H](Cc3ccccc3)NC(=O)OCc3cncs3)cc2o1 | yes (1)
COc1cc(/C=C2\CCCN3C2=NOCC[C@@H]3c2cc(F)c(F)c(F)c2)ccc1-n1cnc(C)c1 | no (0)
CCN(C[C@@H](O)[C@H](Cc1ccccc1)NC(=O)OCc1cncs1)C(=O)c1ccc2nc(N3CCCC3)oc2c1 | yes (1)
CN[C@@H]1CCN(c2ccc(Cl)c(Cl)c2)c2ccccc21 | no (0)
COc1ncnc(N2Cc3cn(-c4cccc(S(C)(=O)=O)c4)nc3[C@H]2C(C)C)c1F | yes (1)
CC(C)Nc1nccc(N(CCCCN)C(=O)c2ccc3c(c2)CCO3)n1 | no (0)
Cc1csc(Cn2c(C3CCCN(C4CCCCC4)C3)nc3ccccc32)n1 (stereo unspecified) | no (0)
O=c1c2ccccc2c(Cc2ccc(Cl)cc2)nn1C[C@H]1CCCN1CCCCc1ccc(OCCCN2CCCCCC2)cc1 | yes (1)
CN1CCc2cc3c(cc2C(=O)Cc2ccc4c(c2C1)OCO4)OCO3 | no (0)
O=C1OC[C@H](Cc2ccc3c(c2)OCO3)[C@H]1Cc1ccc2c(c1)OCO2 | no (0)
Cc1cc(C(=O)Nc2nc3cccc(C)c3n2[C@@H]2CCCCN(C(=O)/C=C/CN(C)C)C2)ccn1 | no (0)
CN1C(=N)N[C@@]2(c3cc(-c4cccc(C#N)c4)cs3)CN(c3ncc(F)c(N4CCOCC4)n3)C[C@H]2C1=O | no (0)
COc1cc2nccc(Oc3ccc4c(C(=O)Nc5ccc(Cl)cc5)cccc4c3F)c2cc1OC | no (0)
CCOC(=O)c1[nH]cc2c1NC1=C(C(=O)CCC1)C2c1ccc(Sc2nc3cc(F)c(F)cc3[nH]2)o1 (racemic) | no (0)
